- Tested on: non-cancerous cells
- measurement.notes: Viable non-cancerous cells after incubation with anticancer drugs in various media
- Assay type: cell-based
Assignment: determine reported Percentage of viable cells, Drugs in commercial formula sodium pyruvate without SRF for the given molecules.

(Q) Look up and state reported Percentage of viable cells, Drugs in commercial formula sodium pyruvate without SRF for CC(C)(C#N)c1cc(Cn2cncn2)cc(C(C)(C)C#N)c1
(A) 50%

(Q) Look up and state reported Percentage of viable cells, Drugs in commercial formula sodium pyruvate without SRF for O=c1[nH]c(=O)n([C@H]2C[C@H](O)[C@@H](CO)O2)cc1F
(A) 58%

(Q) Look up and state reported Percentage of viable cells, Drugs in commercial formula sodium pyruvate without SRF for CN(Cc1cnc2nc(N)nc(N)c2n1)c1ccc(C(=O)N[C@@H](CCC(=O)O)C(=O)O)cc1 [methotrexate]
(A) 68%

(Q) Look up and state reported Percentage of viable cells, Drugs in commercial formula sodium pyruvate without SRF for N.N.O=C([O-])C1(C(=O)[O-])CCC1.[Pt+2]
(A) 56%

(Q) Look up and state reported Percentage of viable cells, Drugs in commercial formula sodium pyruvate without SRF for O=C1[O][Pt]2([NH][C@@H]3CCCC[C@H]3[NH]2)[O]C1=O
(A) 41%

----------
Assignment: determine reported Percentage of viable cells, Drugs in commercial formula with SRF for the given compounds.
- Tested on: non-cancerous cells
- measurement.notes: Viable non-cancerous cells after incubation with anticancer drugs in various media
- Assay type: cell-based
The figure you give is taken to be in %; do not add the unit.

(Q) Look up and state reported Percentage of viable cells, Drugs in commercial formula with SRF for O=c1[nH]c(=O)n([C@H]2C[C@H](O)[C@@H](CO)O2)cc1F [floxuridine]
(A) 92

(Q) Look up and state reported Percentage of viable cells, Drugs in commercial formula with SRF for CN(Cc1cnc2nc(N)nc(N)c2n1)c1ccc(C(=O)N[C@@H](CCC(=O)O)C(=O)O)cc1 [methotrexate]
(A) 94

(Q) Look up and state reported Percentage of viable cells, Drugs in commercial formula with SRF for CC(C)(C#N)c1cc(Cn2cncn2)cc(C(C)(C)C#N)c1 [anastrozole]
(A) 86

(Q) Look up and state reported Percentage of viable cells, Drugs in commercial formula with SRF for O=C1[O][Pt]2([NH][C@@H]3CCCC[C@H]3[NH]2)[O]C1=O [oxaliplatin]
(A) 95

(Q) Look up and state reported Percentage of viable cells, Drugs in commercial formula with SRF for N.N.O=C([O-])C1(C(=O)[O-])CCC1.[Pt+2] [Carboplatin]
(A) 87
